Target: KDM5B (PLU-1) (Homo sapiens, UniProt Q9UGL1)
Construct: BRIC; 1-809; E. coli; host or cells: E. coli
Assay: Histone lysine demethylase AlphaLISA assay, KDM5B
Format: biochemical
Details: AlphaLISA, in vitro; read-out: HDME Inhibition KDM5B
IC50: recorded values

Illustrative cases are given below, each with its answer.
| compound | IC50 |
| --- | --- |
| CCc1nnc(CNCc2cc(C(=O)O)cc(CO)n2)n1CCCC(C)C | > 10 µM |
| CC(O)c1nnc(CNCc2cc(C(=O)O)cc(CO)n2)n1Cc1ccc(F)cc1 (centres unmarked) | > 10 µM |
| O=C(O)c1cc(CO)nc(CNCCc2nncn2Cc2ccc(C(F)(F)F)cc2)c1 | 0.943 µM |

Query: I'd like to know its IC50. The compound in question is C/C=C/c1cc(C(=O)O)cc(CNCc2nccn2Cc2ccc(F)cc2)n1
Response: > 10 µM

Query: I'd like to know its IC50. The compound in question is COc1ccc(CC(C)C)c(CNCc2cc(C(=O)O)cc(C)n2)n1
Response: > 10 µM

----------
Molecular target: KDM2B (FBXL10) (Homo sapiens, UniProt Q8NHM5)
Construct: KDM2B; BPS,; 1-650; Bac; purchased BPS Bioscience, US; host or cells: baculovirus system
Sequence (Q8NHM5 1-650): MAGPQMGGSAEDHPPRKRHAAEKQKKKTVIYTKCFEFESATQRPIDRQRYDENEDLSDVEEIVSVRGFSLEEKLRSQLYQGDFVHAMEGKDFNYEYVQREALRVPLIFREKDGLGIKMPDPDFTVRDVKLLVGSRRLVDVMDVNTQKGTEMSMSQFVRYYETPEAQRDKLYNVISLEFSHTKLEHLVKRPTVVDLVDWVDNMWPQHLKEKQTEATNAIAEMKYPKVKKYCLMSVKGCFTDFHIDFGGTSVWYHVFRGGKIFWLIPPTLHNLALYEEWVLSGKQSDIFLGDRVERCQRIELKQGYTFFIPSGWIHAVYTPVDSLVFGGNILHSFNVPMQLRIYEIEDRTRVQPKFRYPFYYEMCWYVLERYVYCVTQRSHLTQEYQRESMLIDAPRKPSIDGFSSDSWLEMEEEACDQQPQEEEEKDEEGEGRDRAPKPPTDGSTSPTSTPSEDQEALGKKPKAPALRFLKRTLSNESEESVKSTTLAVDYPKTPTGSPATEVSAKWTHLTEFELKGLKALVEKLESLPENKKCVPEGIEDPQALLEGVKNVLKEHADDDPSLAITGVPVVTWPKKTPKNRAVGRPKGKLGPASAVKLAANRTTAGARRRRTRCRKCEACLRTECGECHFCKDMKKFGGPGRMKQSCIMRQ
Test: Histone lysine demethylase AlphaLISA assay, KDM2B
Assay type: biochemical
Settings: AlphaLISA, in vitro; read-out: HDME Inhibition KDM2B
property_measured: IC50 (nM)

| molecule | target_of_assay | reading_unit | IC50 |
| --- | --- | --- | --- |
| Cc1cc(C(=O)O)cc(CNCc2ncc(CCC(N)=O)n2Cc2ccc(F)cc2)n1 [Compound 114] | KDM2B (FBXL10) (Homo sapiens, UniProt Q8NHM5) | nM | 317 |
| Cc1cc(C(=O)O)cc(CNCCc2ncccc2-c2ccsc2)n1 [Compound 34] | KDM2B (FBXL10) (Homo sapiens, UniProt Q8NHM5) | nM | 1240 |
| COC(=O)c1cn(Cc2ccc(F)cc2)c(CNCc2cc(C(=O)O)cc(CO)n2)n1 [Compound 106] | KDM2B (FBXL10) (Homo sapiens, UniProt Q8NHM5) | nM | 3100 |
| CC#Cc1cc(C(=O)O)cc(CNCc2nccn2Cc2ccc(F)cc2)n1 [Compound 6] | KDM2B (FBXL10) (Homo sapiens, UniProt Q8NHM5) | nM | 708 |

[a] Cc1cc(C(=O)O)cc(CNCc2nccn2CC(C)C)n1 [Compound 80]
[b] CCCCc1cccnc1CCNCc1cc(C(=O)O)cc(C)n1 [Compound 15]
Query: # argmax over IC50 for candidates a and b Return value: the label identifying the chosen record.
Response: b
(b: 5680 nM, a: 683 nM)

----------
Biological target: KDM2B (FBXL10) (Homo sapiens)
Construct: KDM2B; BPS,; 1-650; Bac; purchased BPS Bioscience, US; host or cells: baculovirus system
Experiment: Histone lysine demethylase AlphaLISA assay, KDM2B
Format: biochemical
Settings: AlphaLISA, in vitro; read-out: HDME Inhibition KDM2B
Experimental: The compounds of the application, or a pharmaceutically acceptable salt, or solvate, or prodrug thereof, are tested in an in vitro AlphaLISA assay. […] After an additional period of incubation, the plates are read. The ability of compounds of the application to inhibit the histone lysine demethylase activity in vitro of different enzymes was determined. […]
property_measured: IC50 (nM)

Illustrative cases are given below, each with its answer.
| compound | target_of_assay | IC50 [nM] |
| --- | --- | --- |
| Cc1nnc(CNCc2cc(C(=O)O)cc(CO)n2)n1CCCC(C)C | KDM2B (FBXL10) (Homo sapiens) | 485 |
| CCc1cnc(CNCc2cc(C(=O)O)cc(C)n2)n1CCCC(C)C | KDM2B (FBXL10) (Homo sapiens) | 328 |

[A] Cc1cc(C(=O)O)cc(CNC2CCCc3cccnc32)n1 (centres unmarked)
[B] CCc1nnc(CNCc2cc(C(=O)O)cc(C)n2)n1Cc1ccc(F)cc1
Query: Consider entries A and B . Which has the numerically lower IC50? Return value: the label identifying the chosen record.
Response: B

----------
Target: KDM5B (PLU-1) (Homo sapiens, UniProt Q9UGL1)
Construct: BRIC; 1-809; E. coli; host or cells: E. coli
Sequence (Q9UGL1 1-809): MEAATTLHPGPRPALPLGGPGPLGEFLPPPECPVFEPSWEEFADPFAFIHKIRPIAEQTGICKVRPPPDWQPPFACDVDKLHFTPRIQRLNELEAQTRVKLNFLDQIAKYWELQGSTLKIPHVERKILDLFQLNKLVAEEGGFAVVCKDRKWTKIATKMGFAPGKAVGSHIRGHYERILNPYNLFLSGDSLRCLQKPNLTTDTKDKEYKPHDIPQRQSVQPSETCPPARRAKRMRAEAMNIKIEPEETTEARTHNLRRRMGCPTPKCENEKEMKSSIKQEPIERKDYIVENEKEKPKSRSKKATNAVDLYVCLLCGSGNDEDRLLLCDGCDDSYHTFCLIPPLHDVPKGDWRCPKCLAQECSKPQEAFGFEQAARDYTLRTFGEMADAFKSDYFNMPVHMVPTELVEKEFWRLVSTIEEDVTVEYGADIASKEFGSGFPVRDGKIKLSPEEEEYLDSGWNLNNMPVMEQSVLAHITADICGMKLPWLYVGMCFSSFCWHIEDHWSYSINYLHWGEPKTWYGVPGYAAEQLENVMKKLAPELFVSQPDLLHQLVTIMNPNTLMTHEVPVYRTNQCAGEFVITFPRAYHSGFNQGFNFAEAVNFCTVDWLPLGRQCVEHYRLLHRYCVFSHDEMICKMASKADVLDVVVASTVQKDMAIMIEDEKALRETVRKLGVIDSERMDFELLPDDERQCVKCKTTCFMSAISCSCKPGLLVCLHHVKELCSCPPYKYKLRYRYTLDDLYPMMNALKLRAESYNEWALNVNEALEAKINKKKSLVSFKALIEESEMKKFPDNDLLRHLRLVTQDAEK
Experiment: Histone lysine demethylase AlphaLISA assay, KDM5B
Type: biochemical
Conditions: AlphaLISA assay; read-out: HDME Inhibition KDM5B (IC50)
pIC50: −log10 of the molar value.
property_measured: pIC50

Query: Query the reported pIC50 for KDM5B (PLU-1) (Homo sapiens, UniProt Q9UGL1); item: CCCc1nnc(CNCc2cc(C(=O)O)cc(CO)n2)n1Cc1ccc(F)cc1 [Compound 73]
Response: < 5.00

Query: Query the reported pIC50 for KDM5B (PLU-1) (Homo sapiens, UniProt Q9UGL1); item: CCc1nnc(CNCc2cc(C(=O)O)cc(C)n2)n1C/C=C/c1ccccc1 [Compound 68]
Response: < 5.00

Query: Query the reported pIC50 for KDM5B (PLU-1) (Homo sapiens, UniProt Q9UGL1); item: COc1ccc(OCCc2ccccc2)c(CCNCc2cc(C(=O)O)cc(CO)n2)n1 [Compound 107]
Response: < 5.00

Query: Query the reported pIC50 for KDM5B (PLU-1) (Homo sapiens, UniProt Q9UGL1); item: Cc1cc(C(=O)O)cc(CNCc2nnc(CN(C)C)n2Cc2ccc(F)cc2)n1 [Compound 44]
Response: < 5.00

Query: Query the reported pIC50 for KDM5B (PLU-1) (Homo sapiens, UniProt Q9UGL1); item: Cc1cc(C(=O)O)cc(CNCc2nccn2CCc2ccccc2)n1 [Compound 61]
Response: < 5.00

----------
Molecular target: KDM5B (PLU-1) (Homo sapiens)
Construct: BRIC; 1-809; E. coli; host or cells: E. coli
Sequence (Q9UGL1 1-809): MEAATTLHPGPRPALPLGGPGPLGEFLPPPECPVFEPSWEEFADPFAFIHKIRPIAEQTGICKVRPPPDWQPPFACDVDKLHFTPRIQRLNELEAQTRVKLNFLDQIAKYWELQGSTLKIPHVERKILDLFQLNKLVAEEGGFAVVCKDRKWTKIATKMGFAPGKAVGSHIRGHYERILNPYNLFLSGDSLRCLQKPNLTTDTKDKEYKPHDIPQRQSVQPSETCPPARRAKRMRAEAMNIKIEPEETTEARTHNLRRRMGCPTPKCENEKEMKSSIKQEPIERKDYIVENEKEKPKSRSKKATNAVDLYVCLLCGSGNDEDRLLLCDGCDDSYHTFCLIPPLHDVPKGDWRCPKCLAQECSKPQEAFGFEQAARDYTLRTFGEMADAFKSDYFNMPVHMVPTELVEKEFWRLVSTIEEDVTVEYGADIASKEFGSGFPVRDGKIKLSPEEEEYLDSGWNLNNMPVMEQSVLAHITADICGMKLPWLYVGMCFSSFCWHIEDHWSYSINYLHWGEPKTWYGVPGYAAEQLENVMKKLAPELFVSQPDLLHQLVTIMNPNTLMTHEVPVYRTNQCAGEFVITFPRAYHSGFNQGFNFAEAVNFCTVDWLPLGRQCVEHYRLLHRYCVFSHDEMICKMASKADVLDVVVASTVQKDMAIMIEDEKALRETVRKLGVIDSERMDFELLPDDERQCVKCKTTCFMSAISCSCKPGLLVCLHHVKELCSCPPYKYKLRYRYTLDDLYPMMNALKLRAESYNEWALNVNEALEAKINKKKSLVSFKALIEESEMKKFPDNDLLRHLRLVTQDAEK
Assay: Histone lysine demethylase AlphaLISA assay, KDM5B
Type: biochemical
Conditions: AlphaLISA, in vitro; read-out: HDME Inhibition KDM5B
pIC50: −log10 of the molar value.
pIC50: recorded values

| molecule | pIC50 |
| --- | --- |
| Cc1cc(C(=O)O)cc(CNCc2nncn2CCCc2ccccc2)n1 | < 5.00 |
| CCc1nnc(CNCc2cc(C(=O)O)cc(C)n2)n1Cc1cccc(C(C)O)c1 (stereo not shown) | < 5.00 |

Query: I'd like to know its pIC50. The molecule in question is Cc1cc(C(=O)O)cc(CNCc2nnc(CN(C)C)n2Cc2ccc(F)cc2)n1
Response: < 5.00

Query: I'd like to know its pIC50. The molecule in question is Cc1cc(C(=O)O)cc(CNCc2nccn2Cc2cccc(CN)c2)n1
Response: < 5.00

Query: I'd like to know its pIC50. The molecule in question is COc1ccc(CC(C)C)c(CNCc2cc(C(=O)O)cc(CO)n2)n1
Response: 5.21

Query: I'd like to know its pIC50. The molecule in question is CCc1cnc(CNCc2cc(C(=O)O)cc(C)n2)n1Cc1ccc(F)cc1
Response: < 5.00

Query: I'd like to know its pIC50. The molecule in question is Cc1cc(C(=O)O)cc(CNCCc2ccccn2)n1
Response: < 5.00

Query: I'd like to know its pIC50. The molecule in question is C=C(C)c1cnc(CNCc2cc(C(=O)O)cc(C)n2)n1Cc1ccc(F)cc1
Response: < 5.00

Query: I'd like to know its pIC50. The molecule in question is CSc1cnc(CNCc2cc(C(=O)O)cc(C)n2)n1Cc1ccc(F)cc1
Response: < 5.00
